# target: Human mTOR (FLAG-TOR) (Homo sapiens, UniProt P42345)
# Sequence (P42345 1360-2549 limits assumed): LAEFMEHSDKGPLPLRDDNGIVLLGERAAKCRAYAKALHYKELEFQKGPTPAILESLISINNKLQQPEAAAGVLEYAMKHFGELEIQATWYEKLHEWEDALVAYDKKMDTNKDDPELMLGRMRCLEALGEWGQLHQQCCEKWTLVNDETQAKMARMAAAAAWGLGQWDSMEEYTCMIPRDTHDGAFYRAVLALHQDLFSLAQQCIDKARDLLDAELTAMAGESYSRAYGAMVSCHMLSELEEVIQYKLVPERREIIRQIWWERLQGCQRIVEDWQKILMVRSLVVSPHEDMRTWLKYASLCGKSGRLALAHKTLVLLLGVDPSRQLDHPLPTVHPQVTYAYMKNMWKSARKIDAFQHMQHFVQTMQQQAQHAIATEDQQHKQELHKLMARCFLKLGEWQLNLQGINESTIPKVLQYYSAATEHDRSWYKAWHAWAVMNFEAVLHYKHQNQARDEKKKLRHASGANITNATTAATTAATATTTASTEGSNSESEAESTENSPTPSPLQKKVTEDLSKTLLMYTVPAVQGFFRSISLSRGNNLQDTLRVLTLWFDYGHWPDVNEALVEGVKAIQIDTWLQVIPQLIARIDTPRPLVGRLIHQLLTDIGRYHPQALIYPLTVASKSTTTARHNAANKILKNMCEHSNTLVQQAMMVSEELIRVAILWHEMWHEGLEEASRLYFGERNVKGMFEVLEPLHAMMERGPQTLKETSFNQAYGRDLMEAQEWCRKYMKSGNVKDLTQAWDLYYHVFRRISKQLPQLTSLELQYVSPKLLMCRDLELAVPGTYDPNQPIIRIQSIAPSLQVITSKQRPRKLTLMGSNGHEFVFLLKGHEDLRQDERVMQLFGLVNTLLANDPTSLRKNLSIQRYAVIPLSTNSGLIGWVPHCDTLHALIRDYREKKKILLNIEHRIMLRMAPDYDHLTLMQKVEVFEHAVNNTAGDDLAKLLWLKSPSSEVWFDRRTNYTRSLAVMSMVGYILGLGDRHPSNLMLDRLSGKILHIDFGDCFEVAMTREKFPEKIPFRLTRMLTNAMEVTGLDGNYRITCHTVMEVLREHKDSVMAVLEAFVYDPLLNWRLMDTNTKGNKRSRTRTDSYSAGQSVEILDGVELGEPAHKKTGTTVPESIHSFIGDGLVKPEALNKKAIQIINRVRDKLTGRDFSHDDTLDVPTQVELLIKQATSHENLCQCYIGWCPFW
# assay_name: mTOR kinase assay (DELFIA format, purified enzyme)
# Type: biochemical
# assay_conditions: read-out: IC50 mTOR
measured_parameter: IC50
Report the figure along with its unit, number first.

Take a look at these entries with their results.
CC(C)Nc1nc(-c2ccc(NC(=O)Nc3ccncc3)cc2)nc(N2CC3CCC(C2)O3)n1 [Example 215] ... 1.2 nM
CC(C)Nc1nc(-c2ccc(NC(=O)Nc3ccc(C(=O)NN4CCCC4)cc3)cc2)nc(N2CC3CCC(C2)O3)n1 [Example 219] ... 5.9 nM
CN(C)C(=O)N1CCN(c2nc(-c3ccc(NC(=O)Nc4ccc(C(=O)Nc5ccnnc5)cc4)cc3)nc(N3CCOCC3)n2)CC1 [Example 644] ... 1 nM

Shifting focus to the compound that follows.
Specify reported IC50 for the compound shown: C[C@@H]1COCCN1c1nc(-c2ccc(NC(=O)Nc3ccc(C(=O)N(C)C)cc3)cc2)nc(N2CCOC[C@H]2C)n1 [Example 452]
0.55 nM

====

# target: Human mTOR (FLAG-TOR) (Homo sapiens, UniProt P42345)
# assay_name: mTOR kinase assay (DELFIA format, purified enzyme)
# Format: biochemical
# assay_conditions: read-out: IC50 mTOR
measured_parameter: IC50
For clarity, give the value followed by its unit.

CN(C)CCN1CCN(C(=O)c2ccc(NC(=O)Nc3ccc(-c4nc(N5CCOCC5)nc(N5CCOCC5)n4)cc3)cc2)CC1 [Example 168] ... 3.6 nM
C[C@@H]1COCCN1c1nc(-c2ccc(NC(=O)Nc3ccc(CN(C)C)cc3)cc2)nc(N2CCOC[C@H]2C)n1 [Example 401] ... 2 nM
COC(=O)c1ccc(NC(=O)Nc2ccc(-c3nc(N4CCOCC4)nc(N4CCC(NC(C)=O)CC4)n3)cc2)cc1 [Example 656] ... 19 nM
COC(=O)c1ccc(NC(=O)Nc2ccc(-c3nc(NS(=O)(=O)c4ccccc4)nc(N4CCOCC4)n3)cc2)cc1 [Example 789] ... 59 nM
O=C(Nc1ccc(C(=O)NCCN2CCCCC2)cc1)Nc1ccc(-c2nc(N3CCOCC3)nc(N3C4CCCC3COC4)n2)cc1 [Example 799] ... 0.5 nM

# return recorded IC50 for entry CNC(=O)Nc1ccc(-c2nc(-c3ccc(NC(=O)Nc4ccc(C(N)=O)cc4)cc3)nc(N3CC4CCC(C3)O4)n2)cc1 [Example 464]
1 nM

# return recorded IC50 for input O=C(Nc1ccc(C(=O)O)cc1)Nc1ccc(-c2nc(N3CCCCC3)nc(N3CCOCC3)n2)cc1 [Example 593]
12 nM

====

Catalogue of molecules with associated IC50
# target: UniProt P42345
# assay_name: mTOR kinase assay (DELFIA format, purified enzyme)
# Assay type: biochemical
# assay_conditions: read-out: IC50 mTOR
Numbers only here, please. The scale is nM.

Solved entries (count: 3):
CN(C)CCOc1ccc(NC(=O)Nc2ccc(-c3nc(N4CCSCC4)nc(N4C5CCC4COC5)n3)cc2)cc1 [Example 365] ... 10
COC(=O)c1ccc(NC(=O)Nc2ccc(-c3nc(N4CCCC4)nc(N4CCOCC4)n3)cc2)cc1 [Example 594] ... 22
O=C(Nc1ccncc1)Nc1ccc(-c2nc(N3CCNCC3)nc(N3CC4CCC(C3)O4)n2)cc1 [Example 107] ... 19

Give reported IC50 value for CC(=O)c1nc(-c2ccc(NC(=O)Nc3ccncc3)cc2)nc(N2CCOCC2)n1 [Example 209]
9

Tell us which IC50 value is on record for CN1CCN(CCNC(=O)c2ccc(NC(=O)Nc3ccc(-c4nc(N5CCOCC5)nc(N5C6CCC5COC6)n4)cc3)cc2)CC1 [Example 753]
0.315

Please list IC50 recorded for the molecule O=C(Nc1ccc(C(=O)NCCc2ccccn2)cc1)Nc1ccc(-c2nc(N3CCOCC3)nc(N3C4COCC3COC4)n2)cc1 [Example 778]
0.28

====

# target: UniProtKB P42345
# assay_name: mTOR kinase assay (DELFIA format, purified enzyme)
# Assay type: biochemical
# assay_conditions: read-out: IC50 mTOR
pIC50: −log10 of the molar value.
Assign MET whenever pIC50 does not fall below 8; assign NOT MET whenever it does.

Use the examples below as a reference point.
CC(C)N1CCCN(c2nc(-c3ccc(NC(=O)Nc4ccc(C(=O)O)cc4)cc3)nc(N3CCOCC3)n2)CC1 ... NOT MET
O=C(Nc1ccc(C(=O)N2CCC(N3CCCC3)CC2)cc1)Nc1ccc(-c2nc(N3CCOCC3)nc(N3C4CCCC3COC4)n2)cc1 ... MET
O=C(Nc1ccncc1)Nc1ccc(-c2nc(N3CCOCC3)nc(N3C4COCC3[C@H](OCc3ccccc3)C4)n2)cc1 (stereo partly shown) ... MET
CCc1nc(-c2ccc(NC(=O)Nc3ccc(C(=O)N4CCN(c5ccccn5)CC4)cc3)cc2)nc(N2CCOCC2)n1 ... NOT MET
O=C(Nc1ccncc1)Nc1ccc(-c2nc(C3CCOCC3)nc(N3CCOCC3)n2)cc1 ... MET
COC(=O)c1ccc(NC(=O)Nc2ccc(-c3nc(N4CCCCC4)nc(N4CCOCC4)n3)cc2)cc1 ... NOT MET

Okay, next one:
Assess whether reported pIC50 for C[C@@H]1COCCN1c1nc(-c2ccc(NC(=O)Nc3ccc(N4CCC(N(C)C)CC4)cc3)cc2)nc(C2CCOCC2)n1 sits at 8 or higher.
MET

====

# target: PI3K-α (Homo sapiens, UniProt P42336)
# Sequence (P42336 whole entry, species assumed): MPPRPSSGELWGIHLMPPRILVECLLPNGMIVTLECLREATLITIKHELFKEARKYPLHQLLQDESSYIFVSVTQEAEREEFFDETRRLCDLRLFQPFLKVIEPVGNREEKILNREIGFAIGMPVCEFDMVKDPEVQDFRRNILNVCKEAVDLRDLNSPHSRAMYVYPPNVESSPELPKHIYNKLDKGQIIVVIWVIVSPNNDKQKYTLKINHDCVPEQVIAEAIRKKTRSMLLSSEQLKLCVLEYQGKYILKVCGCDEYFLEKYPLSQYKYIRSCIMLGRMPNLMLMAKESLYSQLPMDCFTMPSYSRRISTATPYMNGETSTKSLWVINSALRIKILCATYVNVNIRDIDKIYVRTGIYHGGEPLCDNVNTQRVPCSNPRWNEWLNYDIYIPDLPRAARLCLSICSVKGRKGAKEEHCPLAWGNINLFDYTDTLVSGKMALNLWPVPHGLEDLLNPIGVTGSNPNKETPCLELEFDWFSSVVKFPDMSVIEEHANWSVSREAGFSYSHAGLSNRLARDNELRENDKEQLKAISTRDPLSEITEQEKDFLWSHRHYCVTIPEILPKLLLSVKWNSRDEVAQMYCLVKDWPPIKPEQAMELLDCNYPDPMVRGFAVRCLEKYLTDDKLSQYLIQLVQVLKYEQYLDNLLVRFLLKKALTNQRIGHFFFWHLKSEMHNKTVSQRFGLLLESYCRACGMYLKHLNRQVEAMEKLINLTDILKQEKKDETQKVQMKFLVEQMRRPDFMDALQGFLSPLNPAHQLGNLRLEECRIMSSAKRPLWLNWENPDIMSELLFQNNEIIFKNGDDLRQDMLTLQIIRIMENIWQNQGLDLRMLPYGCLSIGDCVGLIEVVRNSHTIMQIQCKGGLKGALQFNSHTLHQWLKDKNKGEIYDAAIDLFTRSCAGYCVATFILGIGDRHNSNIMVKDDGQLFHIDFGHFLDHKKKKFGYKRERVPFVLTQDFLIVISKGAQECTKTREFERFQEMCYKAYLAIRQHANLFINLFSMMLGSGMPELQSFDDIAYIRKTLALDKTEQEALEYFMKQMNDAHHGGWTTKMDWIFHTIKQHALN
# Sequence (P27986 whole entry partner, species assumed): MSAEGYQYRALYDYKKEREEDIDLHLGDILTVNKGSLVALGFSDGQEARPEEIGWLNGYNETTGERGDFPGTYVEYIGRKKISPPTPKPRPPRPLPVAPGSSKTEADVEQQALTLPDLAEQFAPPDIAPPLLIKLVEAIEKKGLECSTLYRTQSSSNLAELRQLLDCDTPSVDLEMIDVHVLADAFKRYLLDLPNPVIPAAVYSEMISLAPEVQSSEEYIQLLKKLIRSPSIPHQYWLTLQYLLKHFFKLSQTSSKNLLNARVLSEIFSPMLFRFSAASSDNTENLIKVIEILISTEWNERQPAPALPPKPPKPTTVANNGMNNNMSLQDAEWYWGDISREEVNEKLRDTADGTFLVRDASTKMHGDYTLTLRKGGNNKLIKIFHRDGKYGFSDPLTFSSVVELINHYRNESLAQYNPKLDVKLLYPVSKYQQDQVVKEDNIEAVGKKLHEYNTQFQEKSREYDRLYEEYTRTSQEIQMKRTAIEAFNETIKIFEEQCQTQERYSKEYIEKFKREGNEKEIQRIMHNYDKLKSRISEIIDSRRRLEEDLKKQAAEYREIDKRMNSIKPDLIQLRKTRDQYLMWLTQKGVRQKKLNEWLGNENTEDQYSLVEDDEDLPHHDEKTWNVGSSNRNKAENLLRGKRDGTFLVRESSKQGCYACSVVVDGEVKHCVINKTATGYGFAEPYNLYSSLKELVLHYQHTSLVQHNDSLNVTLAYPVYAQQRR
# assay_name: PI3K-alpha fluorescence polarization assay
# assay_conditions: read-out: IC50 PI3Kα; listed as 730
measured_parameter: IC50 (nM)
Write the answer as a number in nM, unit excluded.

Specify IC50 for O=C(Nc1ccncc1)Nc1ccc(-c2nc(CCC3OCCCO3)nc(N3CCOCC3)n2)cc1 [Example 267] , system PI3K-α (Homo sapiens, UniProt P42336).
15.5

====

# target: PI3K-α (Homo sapiens, UniProt P42336)
# assay_name: PI3K-alpha fluorescence polarization assay
# assay_conditions: read-out: IC50 PI3Kα; listed as 711
measured_parameter: IC50

State its IC50 for this compound: CN(C)CCNC(=O)Nc1ccc(-c2nc(N3CCOCC3)nc(N3CCC4(CC3)OCCO4)n2)cc1
208 nM

====

# target: PI3K-α (Homo sapiens, UniProt P42336)
# assay_name: PI3K-alpha fluorescence polarization assay
# assay_conditions: read-out: IC50 PI3Kα
Counter-ions that a name gives are not always drawn.
measured_parameter: pIC50
Just the number, please; pIC50 means minus log10 of the concentration in mol/L.

Check out these entries, answers already filled in.
CC(C)N1CCN(C(=O)c2ccc(NC(=O)Nc3ccc(-c4nc(N5CCOC[C@H]5C)nc(N5CCOC[C@@H]5C)n4)cc3)cc2)CC1 ... 7.87
CN(C)CCN(C)C(=O)c1ccc(NC(=O)Nc2ccc(-c3nc(N4CCOCC4)nc(N4CCOCC4)n3)cc2)cc1 [Example 71, hydrochloride] ... 9.40

With those in mind, consider the next compound.
Specify the recorded pIC50 for CN1CCN(c2ccc(Nc3nc(-c4ccc(NC(=O)NCCF)cc4)nc(N4CC5CCC(C4)O5)n3)cc2)CC1 , system: PI3K-α (Homo sapiens, UniProt P42336).
5.96

====

# target: PI3K-α (Homo sapiens, UniProt P42336)
# assay_name: PI3K-alpha fluorescence polarization assay
# assay_conditions: read-out: IC50 PI3Kα
pIC50: −log10 of the molar value.
Criterion: pIC50 meeting or surpassing 8. Met: Fulfilled. Not met: Not fulfilled.

COC(=O)N1CCN(c2nc(-c3ccc(NC(=O)Nc4ccncc4)cc3)nc(N3CC4CCC(C3)O4)n2)CC1 [Example 114] ... Not fulfilled
CN(C)CCNC(=O)c1ccc(NC(=O)Nc2ccc(-c3nc(N4CCOCC4)nc(N4C5CCC4COC5)n3)cc2)cc1 [Example 694] ... Fulfilled

Tell me whether pIC50 is at least 8 here: O=C(Nc1ccncc1)Nc1ccc(-c2nc(N3CCSCC3)nc(N3C4CCC3COC4)n2)cc1 [Example 393]
Not fulfilled

Quick check, pIC50 >= 8? CC(C)c1nc(-c2ccc(NC(=O)Nc3ccc(C(=O)N4CCC(N(C)C)CC4)cc3)cc2)nc(N2CCOCC2)n1 [Example 308]
Fulfilled

Quick check: does O=C(Nc1ccc(F)cc1)Nc1ccc(-c2nc(N3CCOCC3)nc(N3CC4CCC(C3)O4)n2)cc1 [Example 24] have pIC50 greater than or equal to 8?
Not fulfilled

Has COCC(COC)Oc1nc(-c2ccc(NC(=O)OCCO)cc2)nc(N2CC3CCC(C2)O3)n1 [Example 176] a recorded pIC50 greater than or equal to 8?
Not fulfilled

Entry CN1CCN(C(=O)c2ccc(NC(=O)Nc3ccc(-c4nc(C5CCOCC5)nc(N5CCOCC5)n4)cc3)cc2)CC1 [Example 511] : is its pIC50 no less than 8?
Fulfilled

Exam item: decide whether the reported pIC50 for CC(C)Nc1nc(-c2ccc(NC(=O)Nc3cccnc3)cc2)nc(N2C3CCC2COC3)n1 [Example 376] is at least 8.
Not fulfilled

Quick check: does COCC(COC)Oc1nc(-c2ccc(NC(=O)Nc3ccc(N4CCN(C)CC4)cc3)cc2)nc(N2CC3CCC(C2)O3)n1 [Example 175] have pIC50 greater than or equal to 8?
Not fulfilled
